System: hMC-3R (human), P41968
Sequence (P41968 whole entry): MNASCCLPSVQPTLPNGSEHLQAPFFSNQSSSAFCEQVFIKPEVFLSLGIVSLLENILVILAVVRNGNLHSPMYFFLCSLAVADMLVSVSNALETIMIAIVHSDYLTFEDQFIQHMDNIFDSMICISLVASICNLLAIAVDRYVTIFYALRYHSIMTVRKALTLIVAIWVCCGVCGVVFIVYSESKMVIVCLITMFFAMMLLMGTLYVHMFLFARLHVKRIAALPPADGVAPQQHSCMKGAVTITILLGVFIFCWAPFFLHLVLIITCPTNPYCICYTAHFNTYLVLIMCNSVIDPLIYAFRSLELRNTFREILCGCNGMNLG
Assay Name: competition
Reported Conditions: modification not given
Quantity Kind: IC50

>>> experimental_result("SYSMEHFRWGKPVGKKRRPVKVYPNGAEDESAEAFPLEF [ACTH1-39, P01189]")
"6 nM"
